Procedure Details: Determination of binding constants of inhibitor (NNIC) in Model B detergent, Suc-AAPF-pNA read-out
Type: biochemical
Assay Context: Ki of variant with the mutation relative to variant without the mutation, <1.0 beneficial
Experimental: Purified protease variants are pre-diluted to approximately 0.2 mg/ml in dilution buffer. […] 100 μl substrate solution is added and after 5 sec mixing absorbance at 405 nm is measured every 20 sec for 5 min on a SpectraMax Plus reader. Slope from linear regression of initial increase in absorbance at 405 nm is used for calculation of apparent binding constants. […] The Ki for the parent protease and for each variant was calculated as described above […] Ki were calculated as shown in Example 3. […]
Measure: Inhibitor-binding relative Kimutation, inhibitor binding in Model B
Enter a number only.

Task: In one line, give reported Inhibitor-binding relative Kimutation, inhibitor binding in Model B of the entry S114Q, S173P, S175P, F180Y: TY145 protease (SEQ ID NO 3) variant with these substitutions (protein, listed as Bacillus sp.) AVPSTQTPWGIKSIYNDQSITKTTGGSGIKVAVLDTGVYTSHLDLAGSAEQCKDFTQSNPLVDGSCTDRQGHGTHVAGTVLAHGGSNGQGVYGVAPQAKLWAYKVLGDNGSGYQDDIAAAIRHVADEASRTGSKVVINMSLGSSAKDSLIASAVDYAYGKGVLIVAAAGNSGPGPNTIGYPGGLVNAVAVAALENVQQNGTYRVADFSSRGNPATAGDYIIQERDIEVSAPGASVESTWYTGGYNTISGTSMATPHVAGLAAKIWSANTSLSHSQLRTELQNRAKVYDIKGGIGAGTGDDYASGFGYPRVK .
Result: 0.63
